These data points were gathered from patent US7595401B2.

SYSTEM NAME: purified human Hsp90
MEASUREMENT DESCRIPTION: Binding Assay: fluorescence polarization with BODIPY-labeled geldanamycin
CONDITION SET: BODIPY-GM 10 nM, Hsp90 30 nM
Description: Compound binding to purified Hsp90 was monitored using BODIPY-labeled geldanamycin (BODIPY-GM) in a fluorescence polarization assay adapted from Kim et al. (Journal of Biomolecular Screening 2004, 9(5):375-381). […] Parallel and perpendicular fluorescence measurements were read (LJL BioSystems Analyst AD plate reader) with excitation/emission wavelengths of 485/530 nm. […]
EXPERIMENTAL ENDPOINT: pIC50
Please keep in mind that pIC50 is minus log10 of the molar concentration; only the number is needed.

CN(C)CC(=O)N1CCC(CCn2c(Sc3cc4c(cc3Br)OCO4)nc3c(N)ncnc32)CC1 [Example 707]; 7.15

Can you share its pIC50? I mean this molecule: Nc1ncnc2c1nc(Sc1cc3c(cc1Br)OCO3)n2CCC1CCN(Cc2ccc(F)cc2)CC1 [Example 579]
6.51
